Data provenance is the supplement of paper PMC6555819.

Test system: THRa homodimer (NR concentration 90 nM)
Test: PBM binding z-score (relative to random genomic background probes); higher = stronger binding; sequences stand for … in GC…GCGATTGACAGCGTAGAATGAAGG
PBM binding z-score of 0.3 or higher: fulfilled. Under 0.3: not fulfilled.

These solved cases illustrate the format of a correct answer.
# SEQ, QUALITATIVE LABEL
rows = [
    ("CCGACTGGGGCAGAAACGTTACCATACCATCCGG", "not fulfilled"),
    ("GCTAGTTGGTCAGTAAAAGTTCACACACCGGTCG", "fulfilled"),
    ("CCGAGTGGGGCAAGGTTACCATAACGCACAGCCA", "not fulfilled"),
    ("TCTCGGAGCACACGAAAGGTCAGAGCTCGACATC", "not fulfilled"),
    ("CGTCCAAGGTCAGCAGGGCAGTGAAAGCGACGTG", "fulfilled"),
]

Dear colleague, could you confirm whether ACTATTAGTTGAGAGGAGGGCAACCGATAGGTTG has PBM binding z-score at or above 0.3?
not fulfilled

Dear colleague, could you confirm whether CTACCGAGGTGAACAAGGTCGTTGATTACTATTC has PBM binding z-score at or above 0.3?
fulfilled
